The entries below come with measured self-splicing fitness (ln) values attached.
test: self-splicing fitness, log relative to wild type (ln ratio); higher = more splicing; Tetrahymena group I intron in knt gene, E. coli kanamycin selection, DiMSum; sequences stand for … in CUCUCU…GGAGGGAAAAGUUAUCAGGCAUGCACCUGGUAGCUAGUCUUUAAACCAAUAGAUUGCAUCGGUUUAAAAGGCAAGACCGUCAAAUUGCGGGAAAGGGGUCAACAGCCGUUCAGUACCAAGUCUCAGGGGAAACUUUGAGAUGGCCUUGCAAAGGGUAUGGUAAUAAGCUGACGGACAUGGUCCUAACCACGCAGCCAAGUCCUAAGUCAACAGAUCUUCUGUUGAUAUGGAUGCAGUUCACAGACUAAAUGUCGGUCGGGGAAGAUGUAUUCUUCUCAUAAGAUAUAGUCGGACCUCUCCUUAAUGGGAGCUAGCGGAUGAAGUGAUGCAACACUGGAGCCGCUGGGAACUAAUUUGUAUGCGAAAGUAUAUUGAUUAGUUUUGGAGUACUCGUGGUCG; settings: 37 °C;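 also: selection with 25 µg/mL kanamycin versus none on LB agar overnight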
Measured parameter: self-splicing fitness (ln)

1. CACAAGCAAUAUUACGAACG; 0.286
2. GUAAAGCAAUAUUACGUGCG; -0.538
3. GUUAAGCAAUAUUACGCAUG; -0.624
4. UGUGAGCAAUAUUACGGUUG; -2.17
5. CCUAAGCAAUAUUACGCGUG; -2.48
6. CUAAAGCAAUAUUACGUGCC; -2.25
7. AGAUAGCAAUAUUACGGGCU; -1.38
8. AAGUAGCAAUAUUACGAACA; -0.811

====

test: self-splicing fitness, log relative to wild type (ln ratio); higher = more splicing; Tetrahymena group I intron in knt gene, E. coli kanamycin selection, DiMSum; sequences stand for … in CUCUCU…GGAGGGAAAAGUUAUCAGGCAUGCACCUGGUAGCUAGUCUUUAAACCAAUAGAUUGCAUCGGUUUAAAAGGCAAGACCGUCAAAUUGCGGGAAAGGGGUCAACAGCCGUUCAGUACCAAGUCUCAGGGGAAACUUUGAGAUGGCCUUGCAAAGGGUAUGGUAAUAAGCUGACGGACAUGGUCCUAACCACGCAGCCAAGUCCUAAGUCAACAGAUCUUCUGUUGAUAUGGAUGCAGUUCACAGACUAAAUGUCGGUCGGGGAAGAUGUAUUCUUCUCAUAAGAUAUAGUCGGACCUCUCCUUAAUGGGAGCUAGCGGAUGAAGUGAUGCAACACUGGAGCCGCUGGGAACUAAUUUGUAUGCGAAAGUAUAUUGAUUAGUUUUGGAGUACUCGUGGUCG; conditions: 30 °C
Assign rule met whenever self-splicing fitness (ln) does not fall below -3; assign rule not met whenever it does.

1. GGAGAGCAAUAUUACGUCGA; rule met
2. UGCCAGCAAUAUUACGUUAC; rule met
3. AUGUAGCAAUAUUACGAGAA; rule met
4. UUCCAGCAAUAUUACGGCAA; rule met
5. CGUCAGCAAUAUUACGUUCA; rule met
6. UGUCAGCAAUAUUACGCCCA; rule met
7. GGAUAGCAAUAUUACGUACA; rule met
8. UCCAAGCAAUAUUACGGUAA; rule met
9. AUAGAGCAAUAUUACGCGUA; rule met
10. AGCAAGCAAUAUUACGGACA; rule met
11. GGCUAGCAAUAUUACGUCUA; rule met
12. CAUCAGCAAUAUUACGGGGC; rule not met
13. GGUCAGCAAUAUUACGAUCU; rule met
14. GUCCAGCAAUAUUACGGAUG; rule met
15. UCAGAGCAAUAUUACGAGAG; rule not met
16. UGCCAGCAAUAUUACGUGCC; rule met
17. GCGAAGCAAUAUUACGCAGC; rule not met
18. CCCCAGCAAUAUUACGGUCA; rule met
19. UAGAAGCAAUAUUACGGUAA; rule met
20. CAUUAGCAAUAUUACGUUAC; rule not met
21. GUCUAGCAAUAUUACGUACC; rule met
22. CUCUAGCAAUAUUACGUCAA; rule not met
23. UCUAAGCAAUAUUACGCCUC; rule not met
24. CUCAAGCAAUAUUACGGAGC; rule not met
25. GUUGAGCAAUAUUACGUAAU; rule met
26. AUCGAGCAAUAUUACGGUAA; rule met
27. CCCGAGCAAUAUUACGUUCG; rule not met
28. UUUGAGCAAUAUUACGAGGG; rule not met
29. GAGAAGCAAUAUUACGCAGU; rule not met
30. GAGUAGCAAUAUUACGGAAG; rule not met
31. GUAAAGCAAUAUUACGCGGU; rule met
32. UGCGAGCAAUAUUACGCGUU; rule not met
33. GGUAAGCAAUAUUACGGAUG; rule not met
34. CGAUAGCAAUAUUACGGACG; rule met
35. AGACAGCAAUAUUACGAAUG; rule met
36. GCUAAGCAAUAUUACGCUUA; rule met
37. UCGAAGCAAUAUUACGUGGU; rule not met
38. CAGGAGCAAUAUUACGUCAG; rule not met
39. CAGAAGCAAUAUUACGGCGU; rule met
40. AUGAAGCAAUAUUACGGUGA; rule met
41. UGGCAGCAAUAUUACGCAGU; rule not met
42. UACCAGCAAUAUUACGUGGA; rule met
43. CGUGAGCAAUAUUACGGACG; rule met
44. GACCAGCAAUAUUACGUUCA; rule met
45. ACGGAGCAAUAUUACGUGUC; rule not met
46. ACAUAGCAAUAUUACGUGGG; rule not met
47. CAGAAGCAAUAUUACGAACG; rule met
48. CACCAGCAAUAUUACGUAGA; rule met
49. CGGAAGCAAUAUUACGACUU; rule met
50. GUCUAGCAAUAUUACGUCGG; rule not met
51. CUUCAGCAAUAUUACGCACG; rule met
52. UAGCAGCAAUAUUACGACGC; rule not met
53. GUUGAGCAAUAUUACGUUUC; rule met
54. GAGAAGCAAUAUUACGGGCA; rule met
55. CGAGAGCAAUAUUACGCAGA; rule not met
56. UGGCAGCAAUAUUACGAGCC; rule met

====

experiment: self-splicing fitness, log relative to wild type (ln ratio); higher = more splicing; Tetrahymena group I intron in knt gene, E. coli kanamycin selection, DiMSum; sequences stand for … in CUCUCU…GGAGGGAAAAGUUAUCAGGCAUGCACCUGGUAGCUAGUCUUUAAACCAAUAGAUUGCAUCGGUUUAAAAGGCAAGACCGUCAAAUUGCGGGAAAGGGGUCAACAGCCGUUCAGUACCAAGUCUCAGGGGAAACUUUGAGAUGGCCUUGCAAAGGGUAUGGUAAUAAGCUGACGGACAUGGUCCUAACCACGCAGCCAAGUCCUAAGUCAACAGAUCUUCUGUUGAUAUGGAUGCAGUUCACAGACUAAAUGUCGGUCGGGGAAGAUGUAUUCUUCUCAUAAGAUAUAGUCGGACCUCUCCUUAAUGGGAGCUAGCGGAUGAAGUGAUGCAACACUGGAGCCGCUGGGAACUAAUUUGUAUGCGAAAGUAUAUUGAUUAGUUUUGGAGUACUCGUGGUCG; details: 30 °C
Classification scheme (self-splicing fitness (ln)): category 1 = under -3, category 2 = from -3 up to -1, category 3 = -1 and over

1. GGGUAGCAAUAUUACGGAUA; category 2
2. GCGAAGCAAUAUUACGGUUU; category 1
3. CCAGAGCAAUAUUACGCAAG; category 2
4. AAUAAGCAAUAUUACGCGAA; category 2
5. GACCAGCAAUAUUACGUAUC; category 3
6. UGGAAGCAAUAUUACGGUAG; category 2
7. UAAAAGCAAUAUUACGGAAU; category 1
8. GUUGAGCAAUAUUACGAUCU; category 3
9. AUUUAGCAAUAUUACGGCAC; category 3
10. CGUAAGCAAUAUUACGCUAG; category 2
11. UAUUAGCAAUAUUACGCACG; category 3
12. CAUGAGCAAUAUUACGCUAU; category 1
13. AGGAAGCAAUAUUACGCGCC; category 2
14. AGAUAGCAAUAUUACGCUGG; category 1
15. AAUAAGCAAUAUUACGAGCC; category 1
16. CGUGAGCAAUAUUACGUGAU; category 1
17. AAGAAGCAAUAUUACGUUAG; category 1
18. AUAUAGCAAUAUUACGGCUC; category 3
19. CGAAAGCAAUAUUACGGCAG; category 3
20. ACUGAGCAAUAUUACGCGAC; category 2
21. GAGCAGCAAUAUUACGCGCC; category 1
22. AAGAAGCAAUAUUACGUAAA; category 2
23. UGUCAGCAAUAUUACGUCCG; category 3
24. AUGUAGCAAUAUUACGUGGC; category 1
25. AAUCAGCAAUAUUACGAUCA; category 3
26. GAACAGCAAUAUUACGGAUC; category 3
27. CUACAGCAAUAUUACGUGCC; category 2
28. ACCUAGCAAUAUUACGCUUG; category 1
29. ACCCAGCAAUAUUACGACUU; category 3
30. GAAUAGCAAUAUUACGUAGU; category 2
31. AGGGAGCAAUAUUACGUAAA; category 1
32. GUGAAGCAAUAUUACGAUUC; category 3
33. AAGUAGCAAUAUUACGCAAU; category 2
34. CCGGAGCAAUAUUACGUAAC; category 2
35. CAUCAGCAAUAUUACGCUUU; category 2
36. AUAAAGCAAUAUUACGCAAC; category 2
37. CUUCAGCAAUAUUACGAAAA; category 2
38. UCAAAGCAAUAUUACGCGAG; category 3
39. AACAAGCAAUAUUACGCGUC; category 1
40. UACUAGCAAUAUUACGUCAG; category 2
41. CGCUAGCAAUAUUACGAUGG; category 3
42. GCGGAGCAAUAUUACGGUGA; category 2
43. AUGUAGCAAUAUUACGUGUU; category 2
44. GAAUAGCAAUAUUACGUCCC; category 2
